Each item that follows carries a reported pKi.
- test-target: BRD4 (BDI_K57-E168) (Homo sapiens, UniProt O60885)
- Construct: BD1: amino acids K57-E168
- measurement-protocol: TR-FRET bromodomain binding assay, BRD4 first bromodomain
- condition-parameters: His-tagged BD1, Alexa647-labeled probe 100 nM; Ki calculated from IC50
pKi: −log10 of the molar value.
measure: pKi

Cc1[nH]c(-c2cccc(/C=C/c3ccccc3)c2)cc1C(N)=O
5.13
CCCCNc1ccccc1-c1cc(C(N)=O)c(C)[nH]1
6.42
Cc1[nH]c(-c2ccccc2NC[C@H]2CC[C@@H](N)CC2)cc1C(N)=O
6.65
Cc1[nH]c(-c2ccccc2NS(=O)(=O)Cc2ccc(Cl)cc2)cc1C(N)=O
5.73
Cc1[nH]c(-c2cccc(-c3ccccc3)c2)cc1C(N)=O
4.97
COC/C=C/c1ccc(-c2cc(C(N)=O)c(C)[nH]2)cc1
5.40
Cc1[nH]c(-c2ccccc2Oc2ccc3c(c2)CCC3)cc1C(N)=O
6.35
Cc1[nH]c(-c2ccccc2Oc2ccc(Oc3ccccc3)cc2)cc1C(N)=O
5.71
Cc1[nH]c(-c2ccccc2NCc2ccc(F)cc2)cc1C(N)=O
5.45
Cc1[nH]c(-c2ccccc2NS(=O)(=O)c2ccc(F)cc2F)cc1C(N)=O
4.97
Cc1[nH]c(-c2ccccc2NCC2CCN(C(=O)OC(C)(C)C)C2)cc1C(N)=O (stereo not drawn)
6.67
Cc1[nH]c(-c2ccccc2Oc2ccc(Cc3ccccc3)cc2)cc1C(N)=O
6.11
COc1ccc(Oc2ccccc2-c2cc(C(N)=O)c(C)[nH]2)cc1
6.66
Cc1[nH]c(-c2ccccc2NCc2ccc(Cl)cc2)cc1C(N)=O
5.54
CCOC(=O)CCN(Cc1ccccc1)C(=O)c1cc(-c2ccc(-c3c(C)noc3C)cc2)[nH]c1C
5.50
Cc1[nH]c(-c2ccccc2NCC2CCCCC2)cc1C(N)=O
6.28
Cc1noc(C)c1-c1ccc(-c2cc(C(N)=O)c(C)[nH]2)cc1
5.77
Cc1[nH]c(-c2ccccc2Br)cc1C(N)=O
5.73
COc1cccc(-c2cccc(-c3cc(C(N)=O)c(C)[nH]3)c2)c1
4.98
Cc1[nH]c(-c2ccccc2NS(=O)(=O)c2ccc(Cl)cc2)cc1C(N)=O
5.03
Cc1ccc(CNc2ccccc2-c2cc(C(N)=O)c(C)[nH]2)cc1
5.56
CC(=O)Nc1ccc(CN(CC2CCCC2)c2ccccc2-c2cc(C(N)=O)c(C)[nH]2)cc1
5.67
Cc1[nH]c(-c2ccccc2NCCC2CCNCC2)cc1C(N)=O
6.30
CCc1ccc(Oc2ccccc2-c2cc(C(N)=O)c(C)[nH]2)cc1
6.59
Cc1[nH]c(-c2ccccc2NC[C@H]2CC[C@H](NC(=O)OC(C)(C)C)CC2)cc1C(N)=O
6.37
Cc1[nH]c(-c2ccccc2Oc2ccccc2)cc1C(N)=O
6.91
COc1ccc(CN(CC2CCCC2)c2ccccc2-c2cc(C(N)=O)c(C)[nH]2)cc1
5.08
Cc1[nH]c(-c2ccc(-c3ccoc3)cc2)cc1C(N)=O
5.08
Cc1[nH]c(-c2ccccc2NCC2CCNCC2)cc1C(N)=O
6.33
Cc1[nH]c(-c2ccc(-c3cccc(C(=O)NCc4ccco4)c3)cc2)cc1C(N)=O
5.22
Cc1[nH]c(-c2ccccc2NS(=O)(=O)C2CCCCC2)cc1C(N)=O
6.04
Cc1[nH]c(-c2ccc(-c3cncnc3)cc2)cc1C(N)=O
5.03
CCOC(=O)Cc1ccc(OCc2ccccc2)c(-c2cc(C(N)=O)c(C)[nH]2)c1
6.23
Cc1[nH]c(-c2ccccc2NC[C@H]2CC[C@H](N)CC2)cc1C(N)=O
6.50
CC(=O)Nc1ccc(-c2cc(C(N)=O)c(C)[nH]2)cc1
5.46
Cc1[nH]c(-c2ccccc2NS(=O)(=O)C2CCCC2)cc1C(N)=O
6.44
Cc1[nH]c(-c2ccccc2Cc2ccccc2)cc1C(N)=O
6.45
Cc1[nH]c(-c2ccccc2NC2CCNCC2)cc1C(N)=O
6.20
Cc1[nH]c(-c2cccc(-c3cn[nH]c3)c2)cc1C(N)=O
5.59
